- assay-system: Furin (108-574-Tev-Flag-His) enzyme (Homo sapiens, UniProt P09958)
- Construct: Furin (108-574-Tev-Flag-His) enzyme was expressed and purified from CHO cells; TEV cleavage site (C); FLAG (C); His (C); made in house; host or cells: CHO cells
- Sequence (P09958 108-574): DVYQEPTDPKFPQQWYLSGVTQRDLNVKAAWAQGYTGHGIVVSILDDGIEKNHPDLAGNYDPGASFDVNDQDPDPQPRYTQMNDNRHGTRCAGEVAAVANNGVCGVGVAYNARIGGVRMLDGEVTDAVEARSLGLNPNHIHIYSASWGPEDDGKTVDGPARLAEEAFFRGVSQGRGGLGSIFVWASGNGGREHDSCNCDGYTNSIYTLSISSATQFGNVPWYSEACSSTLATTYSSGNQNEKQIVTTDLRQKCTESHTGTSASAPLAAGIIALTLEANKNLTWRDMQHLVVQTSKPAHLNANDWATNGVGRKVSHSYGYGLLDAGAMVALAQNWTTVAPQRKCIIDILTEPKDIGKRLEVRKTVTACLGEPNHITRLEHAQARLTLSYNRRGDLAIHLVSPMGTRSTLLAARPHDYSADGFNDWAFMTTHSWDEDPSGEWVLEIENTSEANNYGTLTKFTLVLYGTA
- assay-explanation: Furin enzyme assay
- Format: biochemical
Counter-ions that a name gives are not always drawn.
Note to self: values exactly at 10 are true (1). So furin enzyme pIC50 at or above 10 is true (1), below is false (0).

> print(dat)
                                   molecule  discrete.label
1  COC(=O)NCC1CCN(Cc2cc(Oc3ccc(N4CCNCC4)nc3)nc(-c3cc(Cl)cc(Cl)c3)c2)CC1 [Example 76, hydrochloride]       false (0)
2  CC(C)(O)CCN1CCN(c2ncc(Oc3cc(CN4CCC(CC(=O)O)CC4)cc(-c4cc(Cl)cc(Cl)c4)n3)cn2)CC1       false (0)
3  CC(CC1CCN(Cc2cc(Oc3cnc(N4CCN(C[C@@H](C)O)CC4)nc3)nc(-c3cc(Cl)cc(Cl)c3)c2)CC1)C(=O)O (stereo partly shown)       false (0)
4  CC(=O)NCC1CCN(Cc2cc(Oc3cnc(N4CCN(CCO)CC4)nc3)nc(-c3cc(Cl)cc(Cl)c3)c2)CC1 [Example 93, hydrochloride]       false (0)
5  CCN1CCN(c2ncc(Oc3cc(CN4CCC(CC(=O)O)CC4)cc(-c4cc(Cl)cc(Cl)c4)n3)cn2)CC1        true (1)

Now examine the next entry.
Is furin enzyme pIC50 at least 10? Consider `CN1CCN(c2ncc(Oc3cc(CN4CCC(Cc5nnn[nH]5)CC4)cc(-c4cc(Cl)cc(Cl)c4)n3)cn2)CC1`
false (0)
